Molecular target: LRRK2 FL (Homo sapiens)
Construct: LRRK2 FL; purchased ThermoFisher SelectScreen
Sequence (Q5S007 whole entry): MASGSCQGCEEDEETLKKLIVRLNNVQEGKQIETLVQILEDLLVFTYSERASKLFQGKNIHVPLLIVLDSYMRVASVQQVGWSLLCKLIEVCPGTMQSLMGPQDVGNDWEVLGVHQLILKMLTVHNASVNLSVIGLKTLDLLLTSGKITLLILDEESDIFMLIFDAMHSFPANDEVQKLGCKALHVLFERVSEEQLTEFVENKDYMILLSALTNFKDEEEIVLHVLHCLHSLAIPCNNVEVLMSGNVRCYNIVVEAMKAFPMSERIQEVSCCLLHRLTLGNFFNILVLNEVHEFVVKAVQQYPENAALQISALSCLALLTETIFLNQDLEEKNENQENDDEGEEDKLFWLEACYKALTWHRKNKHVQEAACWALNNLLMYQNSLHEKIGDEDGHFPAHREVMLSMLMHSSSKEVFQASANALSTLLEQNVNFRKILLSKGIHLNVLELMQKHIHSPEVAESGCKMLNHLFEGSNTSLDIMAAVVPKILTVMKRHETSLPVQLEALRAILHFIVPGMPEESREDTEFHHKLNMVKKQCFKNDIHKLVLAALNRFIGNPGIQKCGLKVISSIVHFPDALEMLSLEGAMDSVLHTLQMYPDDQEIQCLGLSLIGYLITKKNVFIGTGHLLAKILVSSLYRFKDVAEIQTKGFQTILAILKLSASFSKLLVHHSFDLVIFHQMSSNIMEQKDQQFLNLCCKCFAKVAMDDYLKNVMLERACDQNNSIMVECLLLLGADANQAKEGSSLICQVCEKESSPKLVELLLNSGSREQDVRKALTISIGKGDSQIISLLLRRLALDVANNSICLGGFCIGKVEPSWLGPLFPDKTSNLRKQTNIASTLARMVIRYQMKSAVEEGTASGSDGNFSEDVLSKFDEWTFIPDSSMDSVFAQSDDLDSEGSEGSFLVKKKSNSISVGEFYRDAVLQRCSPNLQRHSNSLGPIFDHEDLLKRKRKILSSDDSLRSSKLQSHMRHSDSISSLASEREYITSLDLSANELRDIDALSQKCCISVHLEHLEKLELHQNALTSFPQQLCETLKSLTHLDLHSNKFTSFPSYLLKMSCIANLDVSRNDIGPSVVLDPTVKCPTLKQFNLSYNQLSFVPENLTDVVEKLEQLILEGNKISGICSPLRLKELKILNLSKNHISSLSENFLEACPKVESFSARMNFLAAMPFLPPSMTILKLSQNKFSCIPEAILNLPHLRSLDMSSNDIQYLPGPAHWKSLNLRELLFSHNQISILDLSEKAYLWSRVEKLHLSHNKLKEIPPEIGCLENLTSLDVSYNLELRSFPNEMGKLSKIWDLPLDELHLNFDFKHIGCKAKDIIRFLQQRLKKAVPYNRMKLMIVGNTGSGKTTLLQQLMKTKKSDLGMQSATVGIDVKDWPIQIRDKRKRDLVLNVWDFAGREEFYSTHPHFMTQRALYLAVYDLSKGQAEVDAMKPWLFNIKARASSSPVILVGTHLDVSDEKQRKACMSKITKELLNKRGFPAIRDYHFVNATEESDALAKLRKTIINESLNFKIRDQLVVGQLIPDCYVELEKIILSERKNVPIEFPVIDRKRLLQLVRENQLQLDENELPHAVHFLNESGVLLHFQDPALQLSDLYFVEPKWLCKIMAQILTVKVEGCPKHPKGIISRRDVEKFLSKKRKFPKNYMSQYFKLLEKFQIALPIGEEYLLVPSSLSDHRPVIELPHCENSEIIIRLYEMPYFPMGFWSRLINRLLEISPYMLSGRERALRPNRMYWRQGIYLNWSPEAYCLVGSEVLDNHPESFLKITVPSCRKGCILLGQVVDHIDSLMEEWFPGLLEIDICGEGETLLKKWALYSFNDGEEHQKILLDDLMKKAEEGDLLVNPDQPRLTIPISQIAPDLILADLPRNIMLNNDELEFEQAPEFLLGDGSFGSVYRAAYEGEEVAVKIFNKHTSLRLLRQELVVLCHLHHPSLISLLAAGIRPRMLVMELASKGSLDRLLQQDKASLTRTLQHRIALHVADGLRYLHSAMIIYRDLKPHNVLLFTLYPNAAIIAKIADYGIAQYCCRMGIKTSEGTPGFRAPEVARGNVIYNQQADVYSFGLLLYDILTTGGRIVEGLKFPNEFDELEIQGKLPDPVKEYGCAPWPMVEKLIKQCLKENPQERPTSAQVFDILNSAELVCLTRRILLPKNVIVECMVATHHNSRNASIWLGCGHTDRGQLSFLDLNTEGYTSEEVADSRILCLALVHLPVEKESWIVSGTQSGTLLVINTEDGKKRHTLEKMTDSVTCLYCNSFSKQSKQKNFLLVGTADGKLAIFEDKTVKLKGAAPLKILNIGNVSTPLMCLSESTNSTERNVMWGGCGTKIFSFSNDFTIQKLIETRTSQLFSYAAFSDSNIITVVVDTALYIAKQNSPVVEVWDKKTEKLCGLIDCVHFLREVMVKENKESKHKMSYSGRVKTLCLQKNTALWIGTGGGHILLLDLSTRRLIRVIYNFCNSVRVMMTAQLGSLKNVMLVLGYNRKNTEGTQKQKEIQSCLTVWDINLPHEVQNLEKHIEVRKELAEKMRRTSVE
Assay: Kinase IC50 (SelectScreen)
Format: biochemical
Conditions: Table 8
measuredMetric: pIC50
When answering, recall that pIC50 equals minus log10 of the concentration in mol/L, and write that number alone.

Input line: I'm curious: which pIC50 was measured for CN1CCN(c2cc(C(=O)Nc3cc4cc(-c5cnn(C)c5)ccc4cn3)ccn2)CC1 [Compound 12] tested on LRRK2 FL (Homo sapiens)?
Output line: 7.72

====

System: pancreatic cancer (8 cell lines)
Assay: CellTiter-Glo Viability Assay, pancreatic cancer
Format: cell-based
Conditions: Homo sapiens, BXPC-3; BxPC3 cell line; inhibition of cancer cell proliferation; read-out: Pancreatic cancer, EC50 BxPC3
measuredMetric: EC50 (nM)
# value in nM; strip the unit string

Input line: Dear colleague, I am looking for the recorded EC50 of the following compound: O=C(Nc1c[nH]nc1-c1nc2c(-c3cccc(F)c3)cncc2[nH]1)c1cccnc1 [Compound 91]
Output line: 22

Input line: Dear colleague, I am looking for the recorded EC50 of the following compound: CN1CCC(Oc2ccc(NC(=O)c3n[nH]cc3/C=C/c3cccnc3)cn2)CC1 [Compound 93]
Output line: 9040

Input line: Dear colleague, I am looking for the recorded EC50 of the following compound: O=C(Nc1cncc(-c2ccc3[nH]nc(-c4cc5cnccc5[nH]4)c3c2)c1)C1CCCCC1 [Compound 47]
Output line: 770

Input line: Dear colleague, I am looking for the recorded EC50 of the following compound: CN1CCC(Oc2ccc(NC(=O)c3n[nH]c4cc(F)c(-c5cnn(C)c5)cc34)cc2)CC1 [Compound 61]
Output line: 2030

Input line: Dear colleague, I am looking for the recorded EC50 of the following compound: Cc1ncc(C(=O)Nc2cc3nc(-c4cnc(C)n4C)ccc3cn2)s1 [Compound 82]
Output line: 199

Input line: Dear colleague, I am looking for the recorded EC50 of the following compound: Cn1ncc(-c2ccc3cnc(NC(=O)C4CC5(C4)CN(CCF)C5)cc3c2)c1CN1CCCCC1 [Compound 77]
Output line: 422

Input line: Dear colleague, I am looking for the recorded EC50 of the following compound: CN1CCN(c2cc(C(=O)Nc3cc4cc(-c5nnc(N(C)C)s5)ccc4cn3)ccn2)CC1 [Compound 84]
Output line: 2070

Input line: Dear colleague, I am looking for the recorded EC50 of the following compound: CN1CCCn2cc(nn2)-c2nccc3[nH]c(nc23)-c2n[nH]c3ccc(cc23)-c2cncc(c2)C1 [Compound 57]
Output line: 7240

Input line: Dear colleague, I am looking for the recorded EC50 of the following compound: Cc1n[nH]c2ccc(-c3cncc(N[C@H]4CC[C@H](O)CC4)n3)cc12 [Compound 65]
Output line: 678

Input line: Dear colleague, I am looking for the recorded EC50 of the following compound: Cc1ncc(-c2ccc3cnc(NC(=O)c4cnn(C5CCN(C)CC5)c4)cc3c2)o1 [Compound 83]
Output line: 254

Input line: Dear colleague, I am looking for the recorded EC50 of the following compound: CN(C)C1CN(c2cc(C(=O)Nc3cc4cc(-c5cnn(C)c5)ccc4cn3)ccn2)C1 [Compound 70]
Output line: 940

Input line: Dear colleague, I am looking for the recorded EC50 of the following compound: CN1CCN(c2cc(C(=O)Nc3cc4cc(-c5cn(C)nn5)ccc4cn3)ccn2)CC1 [Compound 14]
Output line: 484

Input line: Dear colleague, I am looking for the recorded EC50 of the following compound: CS(=O)(=O)NCc1cc(F)cc(-c2nccc3[nH]c(-c4n[nH]c5ccc(-c6cncc(NC(=O)C7CCC7)c6)cc45)cc23)c1 [Compound 53]
Output line: 3540

Input line: Dear colleague, I am looking for the recorded EC50 of the following compound: Cc1cc2ncc(-c3ccc4cnc(NC(=O)c5ccnc(N6CCN(C)CC6)c5)cc4c3)cc2[nH]1 [Compound 87]
Output line: 1250

Input line: Dear colleague, I am looking for the recorded EC50 of the following compound: c1cc2cc(c1)-c1cncc3[nH]c(nc13)-c1n[nH]c3ccc(cc13)-c1cncc(c1)CNC2 [Compound 54]
Output line: 361

Input line: Dear colleague, I am looking for the recorded EC50 of the following compound: CN(C)Cc1cncc(-c2cnc3[nH]nc(-c4nc5c(-c6cc(F)cc(N7CCOCC7)c6)cncc5[nH]4)c3c2)c1 [Compound 46]
Output line: 6080
